// provenance: ChEMBL document CHEMBL1156021

- Assay explanation: Metabolic stability in human liver microsomes assessed as compound remaining at 1 uM after 120 mins
- Format: ADME, Microsome
- Condition description: read-out: Stability
Assay metric: remaining at 2 h, 1 µM

CCN(Nc1c(Nc2cccc(C(=O)N(C)C)c2O)c(=O)c1=O)c1ccccc1; > 50%
CCN(Nc1c(Nc2cccc(C(=O)N(C)C)c2O)c(=O)c1=O)c1ccccn1; > 50%

Here is another compound to look at.
Per the record, CCN(CC)Nc1c(Nc2cccc(C(=O)N(C)C)c2O)c(=O)c1=O has remaining at 2 h, 1 µM of > 50%

====

- Species: Homo sapiens
- Assay explanation: Selectivity ratio of Ki for human CXCR1 to Ki for human CXCR2
Assay metric: Ratio Ki

CCN(Nc1c(Nc2cccc(C(=O)N(C)C)c2O)c(=O)c1=O)c1ccc(OC)cc1; 40

a = CCN(Nc1c(Nc2cccc(C(=O)N(C)C)c2O)c(=O)c1=O)c1ccccc1
b = CCN(CC)Nc1c(Nc2cccc(C(=O)N(C)C)c2O)c(=O)c1=O
Task: Please indicate which entry, a or b , has the lower recorded Ratio Ki value. Answer format: the label of the selected item.
Output: a

====

- System name: C-X-C chemokine receptor type 2 (Homo sapiens)
- Sequence (P25025 whole entry): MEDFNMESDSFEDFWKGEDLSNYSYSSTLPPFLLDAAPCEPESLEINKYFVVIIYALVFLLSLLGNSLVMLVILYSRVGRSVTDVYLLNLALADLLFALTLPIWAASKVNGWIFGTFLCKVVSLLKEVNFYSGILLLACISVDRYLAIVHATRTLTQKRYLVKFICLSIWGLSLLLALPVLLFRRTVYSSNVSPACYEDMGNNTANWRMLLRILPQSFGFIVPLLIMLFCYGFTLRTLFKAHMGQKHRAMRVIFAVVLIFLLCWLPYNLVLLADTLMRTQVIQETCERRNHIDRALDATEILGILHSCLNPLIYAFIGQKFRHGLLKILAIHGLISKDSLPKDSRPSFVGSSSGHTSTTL
- Assay explanation: Displacement of [125I]IL-8 from human CXCR2 expressed in mouse BaF3 cells by liquid scintillation counting
Assay metric: IC50 (µM)

a = CCNNc1c(Nc2cccc(C(=O)N(C)C)c2O)c(=O)c1=O
b = CCN(CC)Nc1c(Nc2cccc(C(=O)N(C)C)c2O)c(=O)c1=O
c = CCN(Nc1c(Nc2cccc(C(=O)N(C)C)c2O)c(=O)c1=O)C(C)=O
Task: Which order do these items take when sorted by rising IC50? List them. Form entry: labels listed in requested order.
Output: b, c, a

====

- Species on record: Homo sapiens
- Assay explanation: Selectivity ratio of Ki for human CXCR1 to Ki for human CXCR2
Assay metric: Ratio Ki

Please review the entries below; each comes with its answer.
CCN(Nc1c(Nc2cccc(C(=O)N(C)C)c2O)c(=O)c1=O)c1ccc(F)cc1; > 20
CCN(Nc1c(Nc2cccc(C(=O)N(C)C)c2O)c(=O)c1=O)C(=O)c1ccc(F)cc1; > 46

Here is another molecule to look at.
Per the record, CCN(Nc1c(Nc2cccc(C(=O)N(C)C)c2O)c(=O)c1=O)c1ccccn1 has Ratio Ki of 40
